A collection of compounds and their measured IC50
Target: human Nav 1.8 (Homo sapiens, UniProt Q9Y5Y9)
Sequence (Q9Y5Y9 126-399 limits assumed): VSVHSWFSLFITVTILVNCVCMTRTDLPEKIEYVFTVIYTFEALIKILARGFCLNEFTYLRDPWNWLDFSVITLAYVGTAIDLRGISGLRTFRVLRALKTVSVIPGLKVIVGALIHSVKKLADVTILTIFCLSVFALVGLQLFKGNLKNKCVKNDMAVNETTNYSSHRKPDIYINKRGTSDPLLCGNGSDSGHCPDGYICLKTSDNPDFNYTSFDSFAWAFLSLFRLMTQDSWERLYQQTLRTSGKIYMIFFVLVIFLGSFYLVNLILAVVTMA
Sequence (Q9Y5Y9 660-890 limits assumed): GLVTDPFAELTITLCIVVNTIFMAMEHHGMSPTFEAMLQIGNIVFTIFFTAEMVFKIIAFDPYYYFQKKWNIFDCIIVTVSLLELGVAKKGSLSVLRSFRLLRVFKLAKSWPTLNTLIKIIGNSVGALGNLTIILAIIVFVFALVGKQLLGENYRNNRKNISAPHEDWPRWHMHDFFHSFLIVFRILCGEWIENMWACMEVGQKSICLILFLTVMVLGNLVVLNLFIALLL
Sequence (Q9Y5Y9 1148-1722 limits assumed): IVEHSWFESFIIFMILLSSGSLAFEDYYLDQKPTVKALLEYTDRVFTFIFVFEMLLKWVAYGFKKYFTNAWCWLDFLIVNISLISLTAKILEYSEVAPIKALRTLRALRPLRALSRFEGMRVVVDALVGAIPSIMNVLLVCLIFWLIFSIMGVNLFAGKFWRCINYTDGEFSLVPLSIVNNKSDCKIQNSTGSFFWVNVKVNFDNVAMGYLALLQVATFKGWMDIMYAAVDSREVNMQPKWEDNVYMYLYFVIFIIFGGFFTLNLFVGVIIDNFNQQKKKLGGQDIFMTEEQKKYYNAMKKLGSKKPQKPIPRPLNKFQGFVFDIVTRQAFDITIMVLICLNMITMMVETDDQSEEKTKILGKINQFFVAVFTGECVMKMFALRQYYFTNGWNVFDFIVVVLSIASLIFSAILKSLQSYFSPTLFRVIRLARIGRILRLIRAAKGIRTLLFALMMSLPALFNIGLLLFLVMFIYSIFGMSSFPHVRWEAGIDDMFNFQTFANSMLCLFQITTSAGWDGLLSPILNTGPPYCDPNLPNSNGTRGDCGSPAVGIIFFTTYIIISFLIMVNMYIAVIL
Assay: E-VIPR assay detecting and measuring Nav inhibition properties
Assay type: cell-based
Conditions: HEK cells expressing a truncated form of human Nav 1.8; compound numbers without "*" (not marked as run in the presence of human serum); read-out: measured IC50 value in the E-VIPR Assay

The compound COc1c([C@H]2[C@H](C(=O)Nc3ccnc(C(=O)N4C[C@H](N)[C@H](OC)C4)c3)O[C@@](C)(C(F)(F)F)[C@H]2C)ccc(F)c1F showed IC50 equal to < 10 nM

C[C@H]1[C@@H](c2ccc(F)c(F)c2OCCN2C[C@H]3COC[C@H]3C2)[C@H](C(=O)Nc2ccnc(C(N)=O)c2)O[C@@]1(C)C(F)(F)F yielded IC50 of < 10 nM

So, CC(=O)C1CC(Oc2c([C@H]3[C@H](C(=O)Nc4ccnc(C(N)=O)c4)O[C@@](C)(C(F)(F)F)[C@H]3C)ccc(F)c2F)C1 (some centres unmarked) ? Its IC50 was < 10 nM

Per the records, this compound ( COCCOc1c([C@@H]2C[C@](C)(C(F)(F)F)O[C@H]2C(=O)Nc2ccnc(C(N)=O)c2)ccc(F)c1F (relative stereo) ) has IC50 equal to < 10 nM

According to the records, this compound CC1C(c2ccc(F)c(F)c2OC2CC(O)C2)C(C(=O)Nc2ccnc(C(N)=O)c2)OC1(C)C(F)(F)F (centres unmarked) displays IC50 of < 10 nM

Lab note: measured IC50 of COC1(C)CN(CCOc2c([C@H]3[C@H](C(=O)Nc4ccnc(C(N)=O)c4)O[C@@](C)(C(F)(F)F)[C@H]3C)ccc(F)c2F)C1 was 10 to 100 nM

compound C[C@H]1[C@@H](c2cccc(Cl)c2O[C@H]2C[C@@H](O)C2)[C@H](C(=O)Nc2ccnc(C(N)=O)c2)O[C@@]1(C)C(F)(F)F , IC50 observed: < 10 nM

Sample C[C@H]1[C@@H](c2ccc(F)c(F)c2OCCC2(O)CC2)[C@H](C(=O)Nc2ccnc(C(N)=O)c2)O[C@@]1(C)C(F)(F)F ; IC50 observed: < 10 nM

Reported IC50 ( COC1CN(CCOc2c([C@H]3[C@H](C(=O)Nc4ccnc(C(N)=O)c4)O[C@@](C)(C(F)(F)F)[C@H]3C)ccc(F)c2F)C1 ) = < 10 nM
